testTarget: T1, Human ROR1-ECD-his (human, UniProt Q01973 30-406)
T1 construct: extracellular domain; bought, Acrobiosystems RO1-H522y; also called hROR1-ECD-his; hROR1 ECD-his
T1 sequence (Q01973 30-406): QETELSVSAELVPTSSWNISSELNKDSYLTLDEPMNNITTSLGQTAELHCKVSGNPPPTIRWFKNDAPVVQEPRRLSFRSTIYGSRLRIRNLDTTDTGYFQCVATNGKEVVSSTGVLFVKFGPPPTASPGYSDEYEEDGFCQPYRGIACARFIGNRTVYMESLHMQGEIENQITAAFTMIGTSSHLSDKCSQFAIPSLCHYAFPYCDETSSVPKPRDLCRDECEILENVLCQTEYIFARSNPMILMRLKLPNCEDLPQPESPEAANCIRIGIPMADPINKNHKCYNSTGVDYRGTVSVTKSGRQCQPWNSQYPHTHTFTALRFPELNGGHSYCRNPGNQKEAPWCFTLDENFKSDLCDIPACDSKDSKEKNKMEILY
protocolDescription: ELISA, plate coated with hROR1 ECD-his
readoutKind: ELISA signal (called MFI)
// response body must contain only the number

PR001371 (antibody, human IgG1, kappa, V domains shown, fully human IgG1, kappa) VH: QVQLVESGGGVVQPGRSLRLSCAASGFTFSSYGMLWVRQAPGKGLEWVAVAWYDGVSEDYADSVKGRFTISRDNSMNTLSLQMNSLRAEDTAVYYCAREQARSFDLWGRGTLVTVSS VL: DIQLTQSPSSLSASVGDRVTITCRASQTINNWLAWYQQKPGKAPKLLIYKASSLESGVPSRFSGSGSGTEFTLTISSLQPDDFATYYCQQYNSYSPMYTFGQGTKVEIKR = 2.38
PR001417 (antibody, V domains shown, fully human IgG1, kappa) VH: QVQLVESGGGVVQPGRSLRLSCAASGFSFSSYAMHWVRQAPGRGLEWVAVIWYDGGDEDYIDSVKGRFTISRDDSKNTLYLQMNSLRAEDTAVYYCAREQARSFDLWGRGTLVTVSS VL: DVVMTQSPSTLSASVGDRVTITCRASQSINSWLAWYQQKPGKAPKLLIYKASSLESGVPSRFSGSGSGTEFTLTISSLQPDDFATYYCQQYNSYSPMYTFGQGTKVEIKR = 2.38

// next entry
# input Query (binder): PR001356 (antibody, human IgG1, kappa, V domains shown, fully human IgG1, kappa; also called anti-ROR1 1015M2-E6 hIgG1; PR001356(WT)) VH: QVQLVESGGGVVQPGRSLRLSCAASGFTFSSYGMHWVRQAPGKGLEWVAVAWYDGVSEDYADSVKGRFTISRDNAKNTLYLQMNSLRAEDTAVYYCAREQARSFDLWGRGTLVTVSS VL: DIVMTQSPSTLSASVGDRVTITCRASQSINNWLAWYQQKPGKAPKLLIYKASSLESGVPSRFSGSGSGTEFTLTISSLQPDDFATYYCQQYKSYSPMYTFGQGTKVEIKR ; field requested: ELISA signal (called MFI)
# output 2.38
